Value source: patent US5786145A

# target_under_test: HIV-1 Rev (Human immunodeficiency virus 1, UniProt P04618 P04618:1-116)
# Sequence (P04618 whole entry, one chain of several): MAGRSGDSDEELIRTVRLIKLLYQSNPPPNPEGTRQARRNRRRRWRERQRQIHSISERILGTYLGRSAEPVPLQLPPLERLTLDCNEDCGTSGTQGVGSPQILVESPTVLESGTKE
# experiment_notes: filter; 50 mM KCl, 4 C; 15% bound at 10 nM rev
# condition_label: tags: none stated; heparin-Sepharose and Superose 6 purified; chain copies: oligomer (tetramer likely; about 4 per RBC6, 6-8 per full-length RRE at 50 mM KCl) stated; label: 32P uniform
parameter: pKd
Give only the number. pKd is defined as minus log10 of concentration in molar units.

The binder listed as R39 (ssRNA, [-]) RNA: GGGAGACCGGAAUUCAGGGCGCAGUGUCAUUGACGCUGCGGUACUGAAUUCCGGCA shows pKd equal to 8.10
